Reference for the values: the NIST ThermoML archive (doi:10.1016/j.fluid.2016.06.028)

# DETAILS: 303.15 K; 101.33 kPa; Liquid; Concentric cylinders viscometry
Flag rule - viscosity less than 50 mPa·s flags rule met; the remaining entries get rule not met.

Below are worked cases with known answers.
sample_smiles=CCC[N+](C)(C)CC.O=S(=O)([N-]S(=O)(=O)C(F)(F)F)C(F)(F)F classification="rule not met"
sample_smiles=COCC[N+]1(C)CCCCC1.O=S(=O)([N-]S(=O)(=O)C(F)(F)F)C(F)(F)F classification="rule not met"
sample_smiles=COCC[N+]1(C)CCCC1.O=S(=O)([N-]S(=O)(=O)C(F)(F)F)C(F)(F)F classification="rule met"

stdin: Identify whether the compound COCC[N+]1(C)CCOCC1.O=S(=O)([N-]S(=O)(=O)C(F)(F)F)C(F)(F)F records viscosity below 50 mPa·s.
stdout: rule not met
